# tested_system: Solute carrier family 2, facilitated glucose transporter member 1 (Homo sapiens)
# Sequence (P11166 whole entry): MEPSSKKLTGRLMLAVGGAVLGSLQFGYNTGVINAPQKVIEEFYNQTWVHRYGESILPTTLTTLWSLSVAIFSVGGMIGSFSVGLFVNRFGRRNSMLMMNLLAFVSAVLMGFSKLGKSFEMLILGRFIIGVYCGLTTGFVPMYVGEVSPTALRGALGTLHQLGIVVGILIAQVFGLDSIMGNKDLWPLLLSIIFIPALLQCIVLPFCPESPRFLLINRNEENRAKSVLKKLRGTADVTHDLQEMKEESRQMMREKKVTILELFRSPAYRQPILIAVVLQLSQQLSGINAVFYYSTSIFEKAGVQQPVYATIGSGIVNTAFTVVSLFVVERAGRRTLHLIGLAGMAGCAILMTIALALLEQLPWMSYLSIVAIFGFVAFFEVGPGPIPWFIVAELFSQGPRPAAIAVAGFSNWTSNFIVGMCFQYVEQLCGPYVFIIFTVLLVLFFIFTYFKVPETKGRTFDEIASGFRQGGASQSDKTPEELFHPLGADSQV
# method: Competitive inhibition of GLUT1 in human HL60 cells assessed as reduction in 2-[1,2-3H]deoxy-D-glucose uptake measured for 30 secs by double reciprocal plot analysis
# Assay type: cell-based
readout: Ki (µM)
Quick note: give the figure in µM, leave out the unit.

Recorded Ki (molecule O=c1c(-c2ccc(O)cc2)coc2cc(O)cc(O)c12 [GENISTEIN] ): 7
